Where do the numbers come from? From PubChem BioAssay AID1159580.

Experiment summary: chemical genetic growth profiling, strain panel (AID 1159580);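 also: tested at 20 µM; growth read once vehicle control cultures reached saturation at 30 °C; lower values mean less growth of the strain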
Run parameters: S. cerevisiae deletion strains, growth OD, locus YDL132W, strain cdc53
Hit rate of the full screen: of about 5,500 compounds, about 2,000 (36%) were called active. About 18% were inconclusive and are not listed. Rule as the data show it: active = normalized growth mostly below about 0.91 (no sharp cut-off); inconclusive = no clear call, values can overlap the other calls; inactive = mostly above about 0.92. This is one part of the list.
// allowed return values: active, inactive

Answered examples (3):
# Compound, Assigned class
data = [
    ("O=C1CSC(c2ccc(C(F)(F)F)cc2)N1c1ccc(C(F)(F)F)cc1 (configuration not stated)", "inactive"),
    ("Cc1c(S(=O)(=O)c2ccc(Cl)cc2)csc1C(=O)NNc1cccc(Cl)c1", "inactive"),
    ("CNC(=O)n1nc(C)c(Cc2csc3ccc(Cl)cc23)c1C", "inactive"),
]

Lookup: What call does the record list for `S=C(NNc1ccccc1)Nc1cc(Cl)ccc1Cl` ?
Found: inactive

Lookup: What call does the record list for `O=C1/C(=C/c2cccs2)COc2ccccc21` ?
Found: inactive

Lookup: What call does the record list for `COc1cc(CC/C(C)=N/O)ccc1OCc1ccc(Cl)cc1Cl` ?
Found: inactive
